Molecular target: GLP-1 receptor (UniProt P43220 24-463, limits assumed)
Test: cell-based or functional assay
Groups on a side chain read outwards from the residue. No end group written: not given here. *: point of attachment. Stearoyl = CCCCCCCCCCCCCCCCCC(=O)*; Palmitoyl = CCCCCCCCCCCCCCCC(=O)*
recordedEndpoint: EC50

Answered examples (3):
binder	resultValue
HSQGTFTSDYSKYLDERRAKDFVQWLMNT-NH2 [E16 K20-glucagon-NH2]	0.21 nM
HSQGTFTSDK([Trp-Palmitoyl])SKYLDERRAKDFVC(PEG 40 kDa)WLMNT-NH2 [E16 K20-glucagon-NH2 with K10-W-C16 and C24-40K PEG (SEQ ID NO: 546)]	0.23 nM
HSQGTFTSDK(Stearoyl)SKYLDERRAKDFVC(PEG 40 kDa)WLMNT-NH2 [E16 K20-glucagon-NH2 with K10-C18 and C24-40K PEG (SEQ ID NO: 547)]	0.15 nM

Attention now turns to another entry.
Reported EC50, binder HSQGTFTSDK([Trp-Stearoyl])SKYLDERRAKDFVC(PEG 40 kDa)WLMNT-NH2 [E16 K20-glucagon-NH2 with K10-W-C18 and C24-40K PEG (SEQ ID NO: 548)] : ____ 1.64 nM
